- Measured On: M4 muscarinic receptor (Homo sapiens)
- Construct: expressed in transfected cells; host or cells: CHO (M4-CHO)
- Sequence (P08173 whole entry): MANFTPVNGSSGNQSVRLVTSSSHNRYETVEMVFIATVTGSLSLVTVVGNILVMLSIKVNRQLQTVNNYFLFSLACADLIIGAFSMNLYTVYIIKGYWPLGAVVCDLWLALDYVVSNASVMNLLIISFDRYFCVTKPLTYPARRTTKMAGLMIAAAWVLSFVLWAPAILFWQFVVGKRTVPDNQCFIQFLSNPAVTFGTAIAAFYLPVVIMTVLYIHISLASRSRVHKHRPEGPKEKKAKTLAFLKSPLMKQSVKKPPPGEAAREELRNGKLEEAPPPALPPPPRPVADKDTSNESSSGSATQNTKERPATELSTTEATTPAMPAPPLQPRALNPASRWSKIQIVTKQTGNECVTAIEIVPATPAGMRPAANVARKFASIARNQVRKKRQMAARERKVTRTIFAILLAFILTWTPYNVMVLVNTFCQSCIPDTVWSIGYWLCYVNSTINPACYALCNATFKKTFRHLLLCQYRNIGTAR
- Measurement Notes: Functional mobilization of intracellular calcium (FLIPR), M4-CHO cells
- Type: cell-based
- Condition Label: 100% efficacy is the maximum response obtained with the Carbachol control
Outcome Measure: Emax

The examples below pair each entry with its known result.
| Molecule | Measured On | Result |
| --- | --- | --- |
| CC(=O)N1CCC2(CCN(C3CCN(c4ncc(C)s4)CC3)CC2)c2ccccc21 | M4 muscarinic receptor (Homo sapiens) | < 25% |
| COC(=O)N1CCC(N2CCC3(CCN(C(C)=O)c4ccccc43)CC2)CC1 | M4 muscarinic receptor (Homo sapiens) | 25 to 100% |

I need Emax for every entry listed below, if you could help.
1. CCc1nsc(N2CCC(N3CCC4(CCN(C(=O)N(C)C)c5ccccc54)CC3)CC2)n1
2. CN(C)C(=O)N1CC2(CCN(C3CC4CCC(C3)N4C(=O)OCC(F)F)CC2)c2ccccc21 (centres unmarked)
3. CC(C)OC(=O)N1C2CCC1CC(N1CCC3(CC1)CN(C(=O)N(C)C)c1ccccc13)C2 (centres unmarked)
4. CCc1nsc(N2CCC(N3CCC4(CC3)CN(C(=O)N(C)C)c3ccccc34)CC2)n1
5. CCOC(=O)N1CCC(N2CCC3(CCN(C(C)=O)c4ccccc43)CC2)CC1
6. CN(C)C(=O)N[C@H]1CC2(CCN(C3CC4CC[C@@H]3C4)CC2)c2ccccc21 (stereo in doubt)

Completion:
25 to 100%
25 to 100%
25 to 100%
> 100%
> 100%
25 to 100%

----------
- Measured On: M1 muscarinic receptor (Homo sapiens)
- Construct: expressed in transfected cells; host or cells: CHO (M1-CHO)
- Sequence (P11229 whole entry): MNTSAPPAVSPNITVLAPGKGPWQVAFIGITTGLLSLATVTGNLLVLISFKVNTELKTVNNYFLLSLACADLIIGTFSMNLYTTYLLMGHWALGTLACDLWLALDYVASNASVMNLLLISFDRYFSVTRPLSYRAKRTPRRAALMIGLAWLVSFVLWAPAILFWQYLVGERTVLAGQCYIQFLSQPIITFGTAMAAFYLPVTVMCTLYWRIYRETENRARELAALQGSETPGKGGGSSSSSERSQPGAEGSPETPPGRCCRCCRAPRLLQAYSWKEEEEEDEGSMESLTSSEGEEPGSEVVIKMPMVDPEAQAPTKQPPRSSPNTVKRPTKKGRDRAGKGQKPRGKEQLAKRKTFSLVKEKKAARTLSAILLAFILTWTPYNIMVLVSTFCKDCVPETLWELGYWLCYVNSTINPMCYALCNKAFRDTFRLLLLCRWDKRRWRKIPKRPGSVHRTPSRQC
- Measurement Notes: Functional mobilization of intracellular calcium (FLIPR), M1-CHO cells
- Assay type: cell-based
- Condition Label: 100% efficacy is the maximum response obtained with the Carbachol control
Outcome Measure: Emax

The cases that follow already have their Emax on record.
| Molecule | Measured On | Emax |
| --- | --- | --- |
| CCOC(=O)N1CCCC(N2CCC3(CC2)CN(C(=O)N(C)C)c2ccccc23)CCC1 | M1 muscarinic receptor (Homo sapiens) | > 100% |
| CC#CCOC(=O)N1CC[C@@H](CN2CCC3(CC2)CN(C(=O)N(C)C)c2ccccc23)C1 | M1 muscarinic receptor (Homo sapiens) | 25 to 100% |
| C#CCOC(=O)N1CCC(N2CCC3(CCN(C(C)=O)c4ccccc43)CC2)CC1 | M1 muscarinic receptor (Homo sapiens) | > 100% |
| CCc1nsc(N2CCC(N3CCC4(CC3)CN(C(=O)N(C)C)c3ccccc34)CC2)n1 | M1 muscarinic receptor (Homo sapiens) | > 100% |
| CC#CCOC(=O)N1C2CCC1CC(N1CCC3(CCN(C(=O)N(C)C)c4ccccc43)CC1)C2 (stereo not shown) | M1 muscarinic receptor (Homo sapiens) | > 100% |
| CC(C)OC(=O)N1CCC(N2CCC3(CC2)CN(C(=O)N(C)C)c2ccccc23)CC1 | M1 muscarinic receptor (Homo sapiens) | 25 to 100% |

Dear colleague, could you please provide Emax for the molecules listed below?
1. CN(C)C(=O)N[C@H]1CC2(CCN(C3CC4CC[C@@H]3C4)CC2)c2ccccc21 (stereo in doubt)
2. C#CCOC(=O)N1CC[C@@H](CN2CCC3(CC2)CN(C(=O)N(C)C)c2ccccc23)C1
3. Cc1nsc(N2C3CCC2CC(N2CCC4(CC2)CN(C(=O)N(C)C)c2ccccc24)C3)n1 (stereo not shown)
4. CC(=O)N1CCC2(CCN(C3CCN(c4nccs4)CC3)CC2)c2ccccc21
5. Cc1ncc(N2CCC(N3CCC4(CC3)CN(C(=O)N(C)C)c3ccccc34)CC2)nc1C
6. CN(C)C(=O)N1CC2(CCN(C[C@H]3CCN(C(=O)OCC(F)F)C3)CC2)c2ccccc21
7. CCOC(=O)N1CC[C@@H](CN2CCC3(CC2)CN(C(=O)N(C)C)c2ccccc23)C1
8. CCC#CCOC(=O)N1CCCC(N2CCC3(CC2)CN(C(=O)N(C)C)c2ccccc23)CC1 (stereo not shown)

Completion:
< 25%
25 to 100%
25 to 100%
25 to 100%
25 to 100%
25 to 100%
25 to 100%
25 to 100%

Provide reported Emax for each item, in the same order as listed.
1. CN(C)C(=O)N1CC2(CCN(C3CCN(c4nccs4)CC3)CC2)c2ccccc21
2. CN(C)C(=O)N1CC2(CCN(C3CCN(c4cncc(Cl)n4)CC3)CC2)c2ccccc21

Completion:
1: 25 to 100%; 2: 25 to 100%

----------
- Measured On: M4 muscarinic receptor (Homo sapiens)
- Construct: expressed in transfected cells; host or cells: CHO (M4-CHO)
- Measurement Notes: Functional mobilization of intracellular calcium (FLIPR), M4-CHO cells
- Type: cell-based
- Condition Label: 100% efficacy is the maximum response obtained with the Carbachol control
Can you tell me Emax for the items I'm about to list?

Examples with answers:
| Compound | Emax |
| --- | --- |
| Cc1nsc(N2CCC(N3CCC4(CC3)CN(C(=O)N(C)C)c3ccccc34)CC2)n1 | > 100% |
| Cc1nsc(N2CC[C@H](CN3CCC4(CC3)CN(C(=O)N(C)C)c3ccccc34)C2)n1 | 25 to 100% |
| CC(=O)N1CCC2(CCN(C3CCN(c4nc(C)cs4)CC3)CC2)c2ccccc21 | 25 to 100% |
| CCC#CCOC(=O)N1CC[C@H](CN2CCC3(CC2)CN(C(=O)N(C)C)c2ccccc23)C1 | > 100% |
| CC(=O)N1CCC2(CCN(C3CCN(c4nc(C)ns4)CC3)CC2)c2ccccc21 | 25 to 100% |

Would you mind listing Emax for each of the following compounds?
1. Cc1cnc(N2CCC(N3CCC4(CC3)CN(C(=O)N(C)C)c3ccccc34)CC2)s1
2. C#CCOC(=O)N1CC[C@@H](CN2CCC3(CC2)CN(C(=O)N(C)C)c2ccccc23)C1
3. COC(=O)N1C2CCC1CC(N1CCC3(CC1)CN(C(=O)N(C)C)c1ccccc13)C2 (stereo not shown)
4. COC(=O)N1C2CCC1CC(N1CCC3(CCN(C(=O)N(C)C)c4ccccc43)CC1)C2 (stereo not shown)
5. CN(C)C(=O)N1CC2(CCN(C[C@@H]3CCN(C(=O)OC4CCOC4)C3)CC2)c2ccccc21 (stereo partly shown)
6. CC#CCOC(=O)N1C2CCC1CC(N1CCC3(CCN(C(=O)N(C)C)c4ccccc43)CC1)C2 (stereo not shown)
7. CCOC(=O)N1CC[C@@H](CN2CCC3(CC2)CN(C(=O)N(C)C)c2ccccc23)C1

Completion:
["< 25%", "25 to 100%", "25 to 100%", "25 to 100%", "< 25%", "25 to 100%", "> 100%"]

# map each compound to its Emax
1. Cc1nsc(N2C3CCC2CC(N2CCC4(CCN(C(=O)N(C)C)c5ccccc54)CC2)C3)n1 (stereo not shown)
2. CN(C)C(=O)N1CC2(CCN(C3CCCN(C(=O)O[C@@H]4CCOC4)CC3)CC2)c2ccccc21 (stereo partly shown)
3. CCOC(=O)N1CCC(N2CCC3(CC2)CN(C(=O)N(C)C)c2ccccc23)CC1
4. C#CCOC(=O)N1CCC(N2CCC3(CCN(C(=O)N(C)C)c4ccccc43)CC2)CC1

Completion:
1: 25 to 100%; 2: 25 to 100%; 3: 25 to 100%; 4: 25 to 100%

----------
What Emax was measured for each of the following?
- Measured On: M1 muscarinic receptor (Homo sapiens)
- Construct: expressed in transfected cells; host or cells: CHO (M1-CHO)
- Measurement Notes: Functional mobilization of intracellular calcium (FLIPR), M1-CHO cells
- Format: cell-based
- Condition Label: 100% efficacy is the maximum response obtained with the Carbachol control

| Compound | Measured On | Emax |
| --- | --- | --- |
| CCCOC(=O)N1CC[C@H](CN2CCC3(CC2)CN(C(=O)N(C)C)c2ccccc23)C1 | M1 muscarinic receptor (Homo sapiens) | < 25% |
| Cc1nsc(N2CCC(C)(N3CCC4(CC3)CN(C(=O)N(C)C)c3ccccc34)CC2)n1 | M1 muscarinic receptor (Homo sapiens) | < 25% |
| CN(C)C(=O)N1CC2(CCN(C3CCN(c4cnc5ccccc5n4)CC3)CC2)c2ccccc21 | M1 muscarinic receptor (Homo sapiens) | 25 to 100% |
| CN(C)C(=O)N1CCC2(CCN(C3CCN(c4nccs4)CC3)CC2)c2ccccc21 | M1 muscarinic receptor (Homo sapiens) | < 25% |
| CC#CCOC(=O)N1CC[C@H](CN2CCC3(CC2)CN(C(=O)N(C)C)c2ccccc23)C1 | M1 muscarinic receptor (Homo sapiens) | 25 to 100% |

Can you give me Emax for all of these, one by one?
1. CCOC(=O)N1CCC(N2CCC3(CCN(C(=O)N(C)C)c4ccccc43)CC2)CC1
2. Cc1csc(N2CCC(N3CCC4(CCN(C(=O)N(C)C)c5ccccc54)CC3)CC2)n1
3. CC#CCOC(=O)N1CCCC(N2CCC3(CC2)CN(C(=O)N(C)C)c2ccccc23)CC1 (stereo not shown)

Completion:
1. 25 to 100%
2. 25 to 100%
3. > 100%

# map each compound to its Emax
1. Cc1nsc(N2CC[C@H](CN3CCC4(CC3)CN(C(=O)N(C)C)c3ccccc34)C2)n1
2. Cc1nsc(N2CC[C@@H](CN3CCC4(CC3)CN(C(=O)N(C)C)c3ccccc34)C2)n1
3. CN(C)C(=O)N1CCC2(CCN(C3CCNCC3)CC2)c2ccccc21
4. CCCOC(=O)N1CC[C@@H](CN2CCC3(CC2)CN(C(=O)N(C)C)c2ccccc23)C1

Completion:
["25 to 100%", "25 to 100%", "< 25%", "< 25%"]

Need Emax for each of these compounds.
1. CCc1nsc(N2CC[C@H](CN3CCC4(CC3)CN(C(=O)N(C)C)c3ccccc34)C2)n1
2. C#CCOC(=O)N1C2CCC1CC(N1CCC3(CCN(C(=O)N(C)C)c4ccccc43)CC1)C2 (stereo not shown)

Completion:
1. 25 to 100%
2. 25 to 100%

Dear colleague, could you send me Emax for each of the items below? Thanks.
1. C#CCCOC(=O)N1CCC(N2CCC3(CC2)CN(C(=O)N(C)C)c2ccccc23)CC1
2. CN(C)C(=O)N1CC2(CCN(C3(C)CCN(c4cnccn4)CC3)CC2)c2ccccc21

Completion:
25 to 100%
25 to 100%
